Consider the following binders; for each one, report its pEC50.
# tested.on: T1, recombinant MAGEA3 protein (human, UniProt P43357 1-314)
# T1 construct: In Experiment 4C MAGEA3 was also expressed in transiently transfected HEK293T cells (fixed and permeabilized); also called His-tagged MAGEA3; CT1.3
# test.summary: ELISA, recombinant MAGEA3 coated to plastic, serial dilutions of antibody, OD 450 nm
# reply with the number alone; pEC50 is -log10 of concentration in mol/L

// query So what's the measured pEC50 for this one? 26C9 (antibody, V domains shown) VH: QVQLVQSGAAVKKPGSSVKVSCTASGGTFGTSGITWVRQAPGQGLEWVGRVTPILGITRYAQRFQGRVTITADTSTSTAYMELSRLRSDDTALYYCARAPEMTINSDWGQGTLVTVSS VL: QSALTQPASVSGSPGQSITISCTGTRSDVGGHNYVSWYQQDPDKAPKLIIYEVSKRPSGVSNRFSGSKSGNTASLTISGLQAEDEADYYCSSYTGTTILEVFGTGTTVTVL
// result 9.28

// query And then 21B4 (antibody, V domains shown, Patient-derived; also called human-derived recombinant antibody 21B4; human monoclonal antibody 21B4) VH: QVQLVESGGGVVQPGRSLRLSCTASGFRFRSHGMHWVRQAPGKGLEWVAVISYDGNNKLYADSVKGRITISRDNSKNTLFLQMNNVRAEDTAVYYCASPYTSDWQYFQYWGQGTLVIVSS VL: EIVMTQSPATLSVSPGERATFSCRASQNISTTLAWYQQKPGQAPRLLIYDTSTRATGIPARFSGSGSGTEFTLTISSLQSEDLAVYYCQQSNSWPLTFGGGTKVEIK , what is it?
// result 10.50

// query Item: 9A5 (antibody, V domains shown) VH: EVQLVASGGVMVKPGGSLRLSCAASGFSFKNAWMTWVRQAPGMGLEWVGRITSKTDGETTDYAAPVKGRFTISRDDSKNILYLQMNSLKTEDTAVYYCATRTTVCYVCWGQGTLVTVSS VL: DIVLTQSPDSLAVSQGERATINCKSSQSLLYSSNNKNYLAWFQQKPGQPPKLLIYWASTRESGVPDRFSGSGSGTDFTLTISSLQAEDVAVYYCQQYYTIGWTFGPGTKVEIK
// result 9.59

// query Now give it for 20C10 (antibody, V domains shown) VH: QLQLQESGPGLVKPSETLSLTCTVSGDSISASTDSWGWIRQSPGKGLEWIGVTSYSGRPYYNPSLKRRVTISVDTSKNHFSLKLTSVTAADRALYYCARRPSLIWAFDIWGQGTMVTVSS VL: QSALTQPASVSGSPEQSITISCTGTSSAVGNYNLVSWYQHHPGKAPLLIIYDVNERPSGVSHRFSGSRSGNTASLTISGLLAEDEADYFCCSYGGTSSLHYVFGTGTRVTVL too.
// result 7.43

// query Then what about the binder 2G4 (antibody, V domains shown) VH: QVQLVQSGAAVKKPGSSVKVSCTASGGTFGTSGITWVRQAPGQGLEWVGRITPILGITRYGQRFQGRVTITADKSTSTAYMELSRLRSDDTALYYCARAPEMTINSDWGQGTLVTVSS VL: QSALTQPASVSGSPGQSITISCTGTRSDVGGHNYVSWYQHDPDKAPKLIIYEVSKRPSGISNRFSGSKSGNTASLTISGLQAEDEADYYCSSYTGSTILEVFGTGTTVTVL ?
// result 8.11

// query 31H10 (antibody, V domains shown) VH: QVQLVESGGGVVQPGGSLRLSCAASDFTFSDHGMHWVRQAPGKGLQWVSFISHHGTNKYYIDSVKGRFIISRDNSKNTLYLQMNSLRTEDTAVYYCATVIGYFFGYGFDVWGQGTTVIVSS VL: EIVMTQSPATLSVSPGEEINLACRASHSISGNLAWYQQKPGQGPRLLIYSASTRATGISARFSGSGSGTEFTLTISSLESEDFAVYFCQQYNNWPLTFGGGTKVEIK ?
// result 10.72
